Every entry's value here was drawn from ChEMBL document CHEMBL1201862.

system: SK-MEL-2; assay: NCI tumour cell line growth inhibition, 48 h
Active and inactive are the calls of the source. No stated cut-off is given here; in the data, active = GI50 up to about 1.1 µM and inactive = higher.
Property label: GI50

>>> assay_result("O=Cc1ccc2c(c1)CC1(C2)Cc2ccc3c(c2C1)CCC3 (centres undefined)")
"4.02 µM (inactive)"
>>> assay_result("COc1ccc2c(c1)nc1n2C(c2c(F)cccc2F)SC1 (centres undefined)")
"31.6 µM (inactive)"
>>> assay_result("CN(CCCNc1ccc2ncn3c4ccccc4c(=O)c1c23)CCCN1C(=O)c2cccc3cc([N+](=O)[O-])cc(c23)C1=O")
"1.58 µM (inactive)"
>>> assay_result("CCOc1ccc(/N=N/C2C(=O)N(C(=O)CC(=O)Nc3ccc(Cl)cc3)N=C2C)cc1 (centres undefined)")
"> 100 µM (inactive)"
>>> assay_result("CCOC(=O)CNC(=O)C(CSC(=O)N(O)c1ccc(Cl)cc1)NC(=O)CCC(N)C(=O)OCC (centres undefined)")
"> 50 µM (inactive)"
>>> assay_result("O=C1NC2(CCCCC2)N=C2C(Cl)CCCC12Cl (centres undefined)")
"> 100 µM (inactive)"
>>> assay_result("Clc1ccc(/C=C/c2nc(Cl)c(-c3ccc(Cl)cc3)c(Cl)n2)cc1")
"25.6 µM (inactive)"
>>> assay_result("CCN(CC)/[N+]([O-])=N/OC")
"> 100 µM (inactive)"
>>> assay_result("CCC(c1ccccc1)c1cc(C(C)(C)C)cc(C(C)(C)C)c1O (centres undefined)")
"15.7 µM (inactive)"
>>> assay_result("CC1(C)O[C@@H](C[C@]2(C#N)C[C@H](CCl)OC(C)(C)O2)C[C@@H](C#N)O1")
"> 100 µM (inactive)"
>>> assay_result("COC1=CC(=O)N(C)C(O)C1(C#N)OC1OC(CO)C(O)C(O)C1O (centres undefined)")
"> 100 µM (inactive)"
>>> assay_result("CC1(C#N)CC(C)(C)C(/C=C2/CC(C)(C)C(/C=C3/OC(=N)CC3(C)C)=N2)=N1 (centres undefined)")
"38.7 µM (inactive)"
>>> assay_result("CCSc1nc(N/N=C/c2cccs2)c2cnn(CO)c2n1")
"10.6 µM (inactive)"
>>> assay_result("C=CC[C@@H](N)C(=O)N(C)[C@@H](C)[C@@H](O)c1ccccc1")
"> 100 µM (inactive)"
>>> assay_result("CC(C)(C)OC(=O)c1ccc(NCC2=CC(=O)C=CC2=O)cc1")
"16.7 µM (inactive)"
>>> assay_result("CC1=NN(C(=O)Cc2ccccc2)C(=O)/C1=C\\c1ccccc1O")
"> 100 µM (inactive)"
>>> assay_result("COC1C(OC(=O)/C=C/C=C/C=C/C=C/C(=O)O)CCC2(CO2)C1C1(C)OC1CC=C(C)C (centres undefined)")
"5.01 µM (inactive)"
>>> assay_result("O=C(CCCn1ccnc1[N+](=O)[O-])NCCn1cncc1[N+](=O)[O-]")
"> 100 µM (inactive)"
>>> assay_result("CN(CCCNC(=O)c1nn(-c2ccccc2)c2c1Cc1ccccc1-2)CCCNC(=O)c1nn(-c2ccccc2)c2c1Cc1ccccc1-2")
"1.69 µM (inactive)"

====

test system: Hs-578T; experiment: NCI tumour cell line growth inhibition, 48 h
The source made the active and inactive calls. Rule as the data show it: active = GI50 up to about 1.1 µM and inactive = higher.
Labels: active, inactive

>>> class_name("C[C@H]1CN[C@@H]2[C@@H](C)[C@H]3[C@@H](C[C@H]4[C@@H]5CC[C@H]6C[C@@H](N)CC[C@]6(C)[C@H]5CC[C@]34C)O[C@@]2(O)C1")
"inactive"
>>> class_name("CCSc1nc(N/N=C/c2cccs2)c2cnn(CO)c2n1")
"inactive"
>>> class_name("CC(C)(C)c1cc(OCc2nnc(S)n2N)c(Cl)cc1OCc1nnc(S)n1N")
"inactive"
>>> class_name("O=C(c1ccc([N+](=O)[O-])cc1)N1CCCC1")
"inactive"
>>> class_name("CN(CCCNc1ccc2ncn3c4ccccc4c(=O)c1c23)CCCN1C(=O)c2cccc3cc([N+](=O)[O-])cc(c23)C1=O")
"active"
